- test-description: qHTS Multiplex Assay to Identify Dual Action Probes in a Cell Model of Huntington: Cytoprotection confirmation (ATP)
- recorded-conditions: PC12 HttQ103 induced, ATP luminescence 40 h; series mostly up to 46.1 µM
Inconclusive results are not listed. Activity calls are given as the source filed them. The call rests on the fitted dose curve; in most records, active means well fitted activation curve with a large enough effect; inconclusive means small, poorly fitted or top-dose-only effect; inactive means no such curve, though single readings can be large or run the other way.
Outcome codes: active, inactive

1) O=c1c2ccccc2nnn1CSc1ncnc2ccccc12; inactive
2) COc1cccc(C(=O)Nc2ccc(F)c(F)c2F)c1; inactive
3) Cn1nnnc1Sc1ncnc2scc(-c3ccccc3F)c12; inactive
4) CCc1nc(SCC(=O)N2CCCC2)c2ccccc2n1; inactive
5) COc1ccc(NC(=O)c2sc(SC)nc2N)cc1; inactive
6) Cc1ccccc1-c1csc2ncnc(Sc3nnnn3C)c12; inactive
7) Cn1nnnc1Sc1ncnc2scc(-c3ccc4ccccc4c3)c12; active
8) COc1c(F)c(F)c(C(=O)Nc2ccc3oc(-c4ccncc4)nc3c2)c(F)c1F; inactive

---

- test-description: qHTS Multiplex Assay to Identify Dual Action Probes in a Cell Model of Huntington: Cytoprotection confirmation (ATP)
- recorded-conditions: PC12 HttQ103 induced, ATP luminescence 40 h; series mostly up to 46.1 µM
Results filed as inconclusive are left out. Active and inactive are the calls of the source. Calls come from the whole dose curve; as a rule, active = well fitted activation curve with a large enough effect; inconclusive = small, poorly fitted or top-dose-only effect; inactive = no such curve, though single readings can be large or run the other way.
property-measured: Potency

1) Cn1nnnc1Sc1ncnc2scc(-c3ccc[nH]3)c12; 12.6 µM (active)
2) Cn1nnnc1Sc1ncnc2scc(-c3cccc([N+](=O)[O-])c3)c12; 25.1 µM (active)
3) O=C(O)/C=C/C(O)c1ccc(Cl)cc1 (stereo unspecified); inactive
4) COc1ccc2cc3cc(C(=O)NCc4ccco4)oc3nc2c1; inactive
5) CC(=O)OCC1=C(C(=O)O)N2C(=O)[C@@H](NC(=O)Cc3cccs3)[C@H]2SC1; inactive
6) CCCn1nc([N+](=O)[O-])c(C(C#N)c2nc3ccccc3s2)c(Cl)c1=O (stereo unspecified); inactive
7) Cc1noc(C)c1COC(=O)Cc1ccc(Cl)cc1; inactive
8) Cn1nnnc1Sc1ncnc2scc(-c3cccc(Br)c3)c12; inactive
9) Fc1ccc(N2CCN(c3ncnc4nc[nH]c34)CC2)cc1; inactive
10) Cc1cccc(/C=N/NC(=O)c2cc3c(s2)-c2ccccc2CC3)c1; inactive
11) COc1ccccc1-c1csc2ncnc(Sc3nnnn3C)c12; inactive

---

- test-description: qHTS Multiplex Assay to Identify Dual Action Probes in a Cell Model of Huntington: Cytoprotection confirmation (ATP)
- recorded-conditions: PC12 HttQ103 induced, ATP luminescence 40 h; series mostly up to 46.1 µM
Inconclusive results are not listed. Activity calls are given as the source filed them. Calls follow the shape of the dose curve; as a rule, active = well fitted activation curve with a large enough effect; inconclusive = small, poorly fitted or top-dose-only effect; inactive = no such curve, though single readings can be large or run the other way.
Outcome codes: T = active, F = inactive

1. C[C@]12CC[C@@H]3c4ccc(OC(=O)c5ccccc5)cc4CC[C@H]3[C@@H]1CC[C@@H]2O; F
2. CCN(Cc1ccncc1)C(=O)c1cc(Br)cc(Br)c1O; F
3. Cn1nnnc1Sc1ncnc2scc(-c3ccsc3)c12; T
4. O=C(c1ccccc1)c1ccc2n1CCC2C(=O)O (stereo not given); F
5. Cc1cccc(-c2csc3ncnc(Sc4nnnn4C)c23)c1; T
6. C#CCN(C)CCCOc1ccc(Cl)cc1Cl; F
7. Cc1nnc2n1N=CC=C(c1ccccc1)S2; F
8. NC(=O)C1CCN(CCC(=O)Nc2ccc(Br)cc2)CC1; F
9. Cn1nnnc1Sc1ncnc2scc(-c3cccc(N)c3)c12; F
10. CC(=O)c1ccc(-c2csc3ncnc(Sc4nnnn4C)c23)cc1; F
11. CS(=O)(=O)c1ccc([C@H](O)[C@H](CO)NC(=O)C(Cl)Cl)cc1; F
12. C=CCC(=O)OCCCCCCOc1ccc(C(=O)O)cc1; F
13. Cc1csc(N/N=C/c2ccc(O)c([N+](=O)[O-])c2)n1; F
14. O=C(NCc1ccco1)c1cc2ccc(O)cc2oc1=O; F
15. Cc1nnsc1C(=O)N/N=C/c1ccc2ccccc2c1O; F
16. Fc1cccc(Cl)c1Cn1nnc2c(-n3ccnc3)ncnc21; F
17. COc1ccc2c(c1)-c1c(ssc1=S)C(C)(C)N2; F
18. NC(=O)c1sc2nc3c(c(-c4cccs4)c2c1N)CCCCC3; F
19. Cn1nnnc1Sc1ncnc2scc(-c3cc4ccccc4o3)c12; F
20. COc1ccc(-c2csc3ncnc(Sc4nnnn4C)c23)cc1; T
21. Cn1nnnc1Sc1ncnc2scc(-c3ccc(F)cc3)c12; T
22. CCc1ccc2oc(-c3cc(N)ccc3O)nc2c1; F
23. CN(C)c1ccc(-c2n(C)c3ccccc3[n+]2C)cc1; F
24. CC(=O)c1n[nH]nc1NC(=O)c1ccccc1; F
25. Cn1nnnc1Sc1ncnc2scc(-c3ccc4c(c3)OCO4)c12; T
